src = PubChem BioAssay (NCI)

# measurement.description: NCI Yeast Anticancer Drug Screen. Data for the CLN2oe strain (AID 163);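 further: 0% = growth of vehicle-only control cultures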
# test.settings: S. cerevisiae CLN2oe strain, at 1.2 µM, active compounds read high
About 79,000 compounds went through this panel and 15% of them were active in at least one assay; those are over-represented in the sample as a whole.
quantity.measured: growth inhibition (%)
Note: unit % is implicit; provide only the numeric part.

Past entries and their recorded results:
O=C(/C=C(/c1ccccc1)N1CCCCC1)c1ccccc1 :: -6
Cc1ccc(NCCNCCO)c2c(=O)c3cc(O)ccc3sc12 :: 6
COc1cccc2c1C(=O)c1c(O)c3c(c(O)c1C2=O)CC(O)(C(O)CO)CC3OC1CC(N2CCOCC2)C(O)C(C)O1 (stereo unspecified) :: 96
COc1cc(/C=N/Nc2nnc3c4ccccc4c4ncccc4c3n2)cc(OC)c1OC :: -8

**Query** Fill in the blank: the reported growth inhibition of O=C(/C=C/c1cc(Cl)cc(Cl)c1O)c1cccc(O)c1 is ____.
**Result** 9

**Query** Field entry: COc1ccc(NC(=O)CC2SC(=Nc3ccccc3C)NC2=O)c([N+](=O)[O-])c1 (stereo unspecified)
**Result** 0

----------
# measurement.description: NCI Yeast Anticancer Drug Screen. Data for the rad50 strain (AID 155);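 further: 0% = growth of vehicle-only cultures of the same strain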
# test.settings: S. cerevisiae rad50 strain growth inhibition; at 11.0 µM
About 79,000 compounds went through this panel and 15% of them were active in at least one assay; those are over-represented in the sample as a whole. Active and inactive are the calls of the source. No stated cut-off is given here; in the data, active means growth inhibition above about 70%; inactive means the rest.
Allowed answers: active, inactive

O=c1nc2n(Cc3ccccc3)c3ccccc3nc-2c(=O)[nH]1 :: inactive
Clc1ccc2c(c1)N(CCCN1CCCC13CCCCC3)c1ccccc1S2 :: inactive
CC(C)OC(=O)c1ccc(CCc2cc(O)c(Br)cc2O)cc1 :: inactive
O=C(O)c1cc2ccccc2c2c1C(=O)c1ccccc1-2 :: active
CN(C)c1ccc2c(SCC(=O)OCC(=O)[C@@]3(O)CC[C@H]4[C@@H]5CCC6=CC(=O)C=C[C@]6(C)[C@H]5C(=O)C[C@@]43C)c3ccc(N(C)C)cc3nc2c1 :: active
CN1C(=O)c2ccc3ccccc3c2C1=O :: inactive

**Query** Test call for this compound, please: CC[n+]1oc(C(=O)c2ccc(Cl)cc2)c(-c2ccccc2)c1-c1ccccc1.[Cl][Fe]([Cl])([Cl])[Cl]
**Result** inactive

**Query** Field entry: COc1ccc(/C=C/C(=O)c2ccccc2)cc1OC
**Result** inactive

**Query** Field entry: O=C1/C(=C/c2ccccc2)CCCC1CN1CCCCC1 (stereo unspecified)
**Result** inactive

**Query** Field entry: CN(C)CCOC1(Cc2ccc(F)cc2)CCC(C(C)(C)C)CC1 (stereo unspecified)
**Result** inactive

**Query** Field entry: Cc1c2ccnc(C(=O)NCCN(C)C)c2cc2c3cc(O)ccc3n(C)c12
**Result** inactive

----------
# measurement.description: NCI Yeast Anticancer Drug Screen. Data for the rad50EPP+ strain (AID 151);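 further: 0% = growth of vehicle-treated control cultures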
# test.settings: S. cerevisiae rad50 mutant strain, at 3.7 µM, active compounds read high
The panel holds about 79,000 compounds, 15% with a hit somewhere; the sample as a whole holds those more often.
Each entry below carries its reported growth inhibition.
Note: unit % is implicit; provide only the numeric part.

Past entries and their recorded results:
CN(CCN(C)Cc1ccccc1)Cc1ccccc1 :: -3
O=C1N=C2SC=C(NC(=S)Nc3ccccc3)N2NC12c1ccccc1-c1ccccc12 :: 7
CN(C)/C=C/c1nnc([N+](=O)[O-])s1 :: 12
O=C(Nc1ccc(Cl)cc1)Nc1nnc2nc(C(C(=O)c3cccc([N+](=O)[O-])c3Cl)c3nc4nnc(NC(=O)Nc5ccc(Cl)cc5)n4[nH]c3=O)c(=O)[nH]n12 :: 5
CC(C)CCCC(C)C1CCC2C3CCC4=CC(=O)/C(=C\O)CC4(C)C3CCC12C (stereo not drawn) :: -2
O=[N+]([O-])/C=C/c1cc(Cl)c(/C=C/[N+](=O)[O-])cc1Cl :: 19

**Query** Fill in the blank: the reported growth inhibition of O=C(NCCCNCCN1C(=O)c2cccc3cc([N+](=O)[O-])cc(c23)C1=O)c1cc(-c2ccccc2)nc2ccccc12 is ____.
**Result** 2

**Query** Field entry: CCc1nc2ccc(NCCN(C)C)c3c(=O)c4ccccc4n1c23
**Result** 26

**Query** Field entry: CC(C)(C)C1=CC(=CC=C2C=CN(CCCCCCCCCCCO)C=C2)C=C(C(C)(C)C)C1=O
**Result** -3

**Query** Field entry: Nc1cc(N)c(N=Nc2cccc3c(S(=O)(=O)O)cccc23)cc1N=Nc1cc([N+](=O)[O-])ccc1O
**Result** 3

**Query** Field entry: NC(N)=NS(=O)(=O)c1ccc(Nc2c3ccccc3nc3c(C(=O)NCCO)cccc23)cc1
**Result** -5

**Query** Field entry: O=C1CC(=O)c2ccccc21
**Result** -1

**Query** Field entry: O=C(NO)Nc1cc(Cl)cc(Cl)c1
**Result** -4

**Query** Field entry: COc1cccc2c1C(=O)c1c(O)c3c(c(O)c1C2=O)CC(O)(C(O)CO)CC3OC1CC(N2CCOCC2)C(O)C(C)O1 (stereo not drawn)
**Result** 96

**Query** Field entry: NC1=NNC2(C(N)=N1)c1ccccc1-c1ccccc12
**Result** 7

**Query** Field entry: Cc1ccc([N+]2=NC(c3ccccc3)=NN(c3ccccc3)C2)cc1
**Result** 15

**Query** Field entry: CCOC1Oc2ccccc2-c2nc(N)ncc21 (stereo not drawn)
**Result** -1

**Query** Field entry: O=C(O)c1ccc(N2C(=O)C=CC2=O)cc1
**Result** 5

**Query** Field entry: CC[N+](CC)(CC)c1ccccc1
**Result** -14

**Query** Field entry: Oc1ccc2c(c1)C(O)CCCC2 (stereo not drawn)
**Result** 25

**Query** Field entry: CC(C)(C)[Si](C)(C)OCC1CCC(n2cnc3c(NC(=O)c4ccccc4)ncnc32)O1 (stereo not drawn)
**Result** -2

**Query** Field entry: CC(C)=NOC(=O)Nc1ccc(Cl)cc1
**Result** 18

----------
Each entry below carries its reported growth inhibition.
# measurement.description: NCI Yeast Anticancer Drug Screen. Data for the mec2-1 strain (AID 157)
# test.settings: S. cerevisiae mec2-1 strain, at 3.7 µM, active compounds read high
This is part of a sample that, as a whole, favours compounds with a hit. Of some 79,000 tested, about 15% had one in any assay.
Note: unit % is implicit; provide only the numeric part.

Past entries and their recorded results:
COc1cc([C@@H]2c3cc4c(cc3[C@@H](Nc3ccc(NC(=O)c5cc([N+](=O)[O-])cn5C)cc3)[C@H]3COC(=O)[C@H]23)OCO4)cc(OC)c1O :: 6
CCCCCOC(=S)SC(=O)OCC :: 3
CCOC(=O)COc1c(OC)cc(C2C3=C(COC3=O)Oc3cc4c(cc32)OCO4)cc1OC (centres undefined) :: 0

Please turn your attention to the following entry.
**Query** Fill in the blank: the reported growth inhibition of COc1cc(/C=C2\NC(=O)N(/C=C3\C(=O)Oc4ccccc4C3=O)C2=O)ccc1O is ____.
**Result** -3

----------
Each entry below carries its reported growth inhibition.
# measurement.description: NCI Yeast Anticancer Drug Screen. Data for the rad50 strain (AID 155);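 further: 0% = growth of vehicle-only cultures of the same strain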
# test.settings: S. cerevisiae rad50 strain growth inhibition; at 5.0 µM (retest, dose inferred, filed as 0.5); active compounds read high
The panel holds about 79,000 compounds, 15% with a hit somewhere; the sample as a whole holds those more often.
Note: unit % is implicit; provide only the numeric part.

NC(=O)c1c([N+](=O)[O-])cc(C(F)(F)F)cc1[N+](=O)[O-] :: -6
Nc1nc2ccc(NCc3ccc(C(=O)NC(CCC(=O)O)C(=O)O)cc3)cc2c(=O)[nH]1 (stereo not given) :: 3
O=C1C(Br)=C(c2ccccc2)O/C1=C/C(=O)c1ccc(Br)cc1 :: -21
O=C1C(=O)c2ccccc2C(O)=C1C(C1=C(O)c2ccccc2C(=O)C1=O)c1ccc(Cl)cc1 :: -7
Cc1ccc(NC(c2ccccc2)c2ccc3cccnc3c2O)cc1 (stereo not given) :: 18
c1ccc2c(c1)sc1c3cnccc3ccc21 :: 35
CCCC(=O)Oc1ccc(/C=N/NC(N)=S)nc1 :: -3
O=[N+]([O-])c1cccc2nc3ccccc3c(NCCC[N+]3([O-])CCCCC3)c12 :: 67
O=C(/C=C\c1cccc(C(F)(F)F)c1)c1ccccc1 :: -5
CC(=O)Nc1ccc(/C=C/[N+](=O)[O-])cc1 :: -66

**Query** Fill in the blank: the reported growth inhibition of C[C](C)(C)[Ge]([O][Ge]([c]1ccccc1)[c]1ccccc1)([O][Ge]([c]1ccccc1)[c]1ccccc1)[C](C)(C)C is ____.
**Result** 12

**Query** Field entry: O=C(COC(=O)c1ccccc1)c1ccc(Br)cc1
**Result** 31

**Query** Field entry: Cc1nc2ccccc2nc1NNc1ccccc1
**Result** 17

**Query** Field entry: S=C1SCN(C2CCCCC2)CN1C1CCCCC1
**Result** 44
